Molecular target: Adenosine receptor A3 (Homo sapiens, UniProt P0DMS8)
Sequence (P0DMS8 whole entry): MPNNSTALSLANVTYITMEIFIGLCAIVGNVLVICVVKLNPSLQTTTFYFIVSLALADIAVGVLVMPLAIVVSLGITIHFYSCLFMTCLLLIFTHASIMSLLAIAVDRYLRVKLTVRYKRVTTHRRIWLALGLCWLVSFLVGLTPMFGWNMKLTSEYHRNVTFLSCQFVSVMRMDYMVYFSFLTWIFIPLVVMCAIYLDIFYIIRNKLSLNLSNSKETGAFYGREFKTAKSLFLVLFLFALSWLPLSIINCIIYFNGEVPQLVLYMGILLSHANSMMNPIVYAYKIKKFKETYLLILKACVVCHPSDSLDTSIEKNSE
Assay: Displacement of [3H]HEMADO from recombinant human A3 receptor expressed in CHO cell membranes
VALUE_TYPE: Ki (nM)

Here are 5 compounds together with their reported answers.
# STRUCTURE_SMILES_STRING, RECORDED_VALUE
rows = [
    ("Nc1ncc(C(=O)c2sc(Nc3ccccc3)nc2-c2ccccc2)n1-c1ccc(F)cc1", 305),
    ("Cc1nc(Nc2ccccc2)sc1C(=O)c1cnc(N)n1-c1ccc(Cl)cc1", 802),
    ("COc1ccc(-n2c(C(=O)c3sc(Nc4ccc(Cl)cc4)nc3C)cnc2N)cc1", 1600),
    ("COc1ccc(-n2c(C(=O)c3sc(Nc4ccccc4)nc3C)cnc2N)cc1", 574),
    ("Cc1ccc(-n2c(C(=O)c3sc(N4CCOCC4)nc3-c3ccccc3)cnc2N)cc1", 17800),
]

P: Cc1ccc(Nc2nc(C)c(C(=O)c3cnc(N)n3-c3ccc(F)cc3)s2)cc1
Q: COc1ccc(-n2c(C(=O)c3sc(N4CCOCC4)nc3-c3ccccc3)cnc2N)cc1
Pick one: P or Q . Which has the bigger Ki number? Mark your selection by writing its label.
Q

I: COc1ccc(-n2c(C(=O)c3sc(Nc4ccccc4)nc3-c3ccccc3)cnc2N)cc1
II: Cc1nc(Nc2ccc(Cl)cc2)sc1C(=O)c1cnc(N)n1-c1ccc(F)cc1
III: CN(C)c1nc(NC(=O)c2ccccc2)sc1C(=O)c1cnc(N)n1-c1ccc(C(F)(F)F)cc1
IV: Cc1nc(Nc2ccccc2)sc1C(=O)c1cnc(N)n1-c1ccc(F)cc1
Please order the records by their reported Ki, lowest number first. Show the ranking through the labels, in the order asked for.
IV, I, II, III
(IV: 190 nM, I: 326 nM, II: 871 nM, III: 4920 nM)
